- Test system: HSV-1
- Experimental Protocol: microbe, parasite or virus in culture
- Assay type: cell-based, Herpes simplex virus type 1 (HSV-1 17 + strain)
- Stated Conditions: Human alphaherpesvirus 1, U-251; U251 cells, HSV-1 MOI = 0.1, co-treatment 24 h, qPCR of UL30 DNA; mean ± SEM of three independent experiments; read-out: IC50 against HSV-1
pIC50: −log10 of the molar value.
Test Readout: pIC50

[[record]]
compound_structure_string = "Nc1nc2c(ncn2COCCO)c(=O)[nH]1"
recorded_result = 4.75

